// compounds with reported pIC50 on UniProt O14965, multi-publication
pIC50: −log10 of the molar value.
metric-name: pIC50

In the examples that follow, each entry is paired with its recorded pIC50.
CSc1ncn(C)c1C[C@@H]1N[C@H](C(=O)O)Cc2c1[nH]c1ccc(O)cc21    4.30
O=C1CCCc2cc(-c3ccnc(Nc4ccc(I)cc4)n3)ccc2N1    5.46

[P] Cc1ccc(Nc2nccc(-c3ccc4c(c3)CCCC(=O)N4)n2)cc1
[Q] O=C1C(Nc2ccc(Cl)cc2)=C(Cl)C(=O)c2[nH]c(C(F)(F)F)nc21
[R] NCCO/N=C1/C(=C2/C(=O)Nc3ccc([N+](=O)[O-])cc32)Nc2ccc(O)cc21
[S] O=C(O)[C@@H]1Cc2c([nH]c3ccc(O)cc23)[C@H](Cc2c[nH]cn2)N1
Task item: Arrange items by their pIC50 values in increasing order. Write the labels, ordered according to the request.
Reply: S, Q, P, R
(S: 4.36, Q: 5.04, P: 5.62, R: 6.65)
